- Tested on: SF-295 CNS
- EXPERIMENT_NOTES: NCI tumour cell line growth inhibition, 48 h
TEST_READOUT: TGI

Sure, the documented TGI for CCOC(=O)C(C(=O)OCC)C(=S)NC1OC(COC(C)=O)C(OC(C)=O)C(OC(C)=O)C1OC(C)=O (stereo not given) is > 100 µM

Sure, the documented TGI for CCOc1ccc(-n2cc(-c3ccc(N(C)C)cc3)[n+]3c2CCCCC3)cc1 is 5.43 µM

Sure, the documented TGI for CCCCCCCCC[C@@H]1C[C@H](O)[C@H](Cc2ccccc2)N1C(=O)OC(C)(C)C is 30.1 µM

Sure, the documented TGI for CC(=O)SC(C[N+](=O)[O-])c1ccccc1 (stereo not given) is 15.9 µM

Sure, the documented TGI for COc1ccc(-c2nn(C(=O)c3cc(OC)c(OC)c(OC)c3)c3cc(N)ccc23)cc1 is 1.75 µM
